Molecular target: TGF-beta1 (hTGF-beta1) (Homo sapiens, UniProt P01137 P01137:279-390)
Sequence (P01137 279-390, one chain of several): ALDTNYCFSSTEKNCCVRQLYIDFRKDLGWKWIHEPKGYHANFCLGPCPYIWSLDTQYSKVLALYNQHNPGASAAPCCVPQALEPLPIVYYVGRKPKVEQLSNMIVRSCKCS
Test: filter; biphasic; Kd1 14.2±4.5 nM
Settings: tags: R&D Systems; biotinylated form (NFTG0) used for BIAcore; chain copies: 2
OBSERVATION TYPE: Kd (nM)

| BINDER | OBSERVATION TYPE | UNIT OF MEASURE | MEASURED VALUE |
| --- | --- | --- | --- |
| 40-23 (ssRNA, 2'-F C and U) RNA: GGGAGGACGAUGCGGUUAGGGGCGUCAACACCGCUAUUACAAUCUUCGCUUCCCAGACGACUCGCCCGA | Kd | nM | 0.0156 |

These measurements were taken from patent US6124449.
